Catalogue of composite z-score values
Measurement description: binders of probe aFSTL3 on microarray, primary screen, stem cell growth factor project, biochemical, small-molecule microarray, fluorescence 635/667 (AID 1064);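 also: measures binding of the biotinylated anti-FSTL3 antibody to printed compounds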
Condition set: higher = more signal
Measurement name: composite z-score

Compound	Measurement name	Experimental result
CN(C)CCCNC(=O)[C@@]1(C)c2ccccc2C(=O)N(Cc2cc(C(F)(F)F)cc(C(F)(F)F)c2)[C@H]1c1ccc(CO)cc1	composite z-score	-0.303
C=CCN1C(=O)[C@]2(CC=C)N=C(c3ccc(OCCCO)cc3)O[C@@H]2c2ccccc21	composite z-score	0.967
COC(=O)[C@]1(CCS(=O)(=O)c2ccccc2)N=C(c2ccc(OCCCO)cc2)O[C@@H]1c1ccccc1CN=[N+]=[N-]	composite z-score	0.0312
O=C1NC(=O)C2C1C=CC(C(O)c1cc(C(F)(F)F)cc(C(F)(F)F)c1)N2Nc1ccc(Cl)cc1Cl (configuration not stated)	composite z-score	0.812
COc1ccc(C(O)C2C=CC3C(=O)N(C)C(=O)C3N2N2CCCCC2)cc1 (configuration not stated)	composite z-score	-0.162
C=CCOC(=O)[C@H]1[C@@H]2C(=O)O[C@@H](c3ccccc3)[C@@H](c3ccccc3)N2[C@@H](c2ccc(OCCOC(=O)[C@H]3C[C@H]4C(=O)N[C@@H](Cc5ccccc5)C(=O)N4[C@H]3c3cccc(OCCO)c3)cc2)[C@]12C(=O)Nc1ccc(I)cc12	composite z-score	-0.36
COc1cc2c(cc1O)C(C)N(Cc1cc3c(cc1Br)OCO3)CC2 (configuration not stated)	composite z-score	0.731

* * *

Test system: Human papillomavirus type 1a protein E7 (residues 44-93)
Measurement description: HPV1a E7 fragment binders on microarrays, primary screen, biochemical, small-molecule microarray, residues 44-93, 635 nm fluorescence (AID 1108);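 also: E7 fragment applied at 1 µg/mL in TBST for 1 h at 4 C; score combines spot fluorescence with its signal to noise ratio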
Condition set: small-molecule microarray binding, fluorescence 635 nm; higher = more signal
Measurement name: composite z-score

Molecule	Measurement name	Experimental result
COCCOC(=O)N1C(=O)[C@@]2(c3cc(C#CC4=CCCCC4)ccc31)[C@H](c1ccc(O)cc1)N1[C@H](c3ccccc3)[C@H](c3ccccc3)OC(=O)[C@H]1[C@@H]2C(=O)Nc1nc2ccccc2s1	composite z-score	0.909
Cc1ccc(S[C@]2(C(=O)NC(C)C)CC(=O)N(C3Cc4ccccc4C3)[C@@H]2c2ccc(CO)cc2I)cc1	composite z-score	-0.803
CCOC(=O)C1=C[C@@H](c2ccccc2)N(S(=O)(=O)c2ccc(C)cc2)[C@H]1c1cccc(Cl)c1	composite z-score	0.242
C=C(COC)/C(=C/C[C@@H](OC(=O)c1ccncc1)c1ccc(OCCO)cc1)c1cnc2ccccc2c1	composite z-score	1.3
C=CCN1Cc2ccccc2C[C@@]2(N=C(c3ccc(OCCCO)cc3)O[C@H]2c2ccccc2)C1=O	composite z-score	1.46
CC(C)(C)OC(=O)CC[C@]1(C(=O)O)N=C(c2ccc(OCCCO)cc2)O[C@H]1c1ccccc1	composite z-score	0.138
CC(C)NC(=O)[C@@]1(C)c2ccccc2C(=O)N(C(C)C)[C@H]1c1ccc(CO)cc1	composite z-score	-0.609
C=C(/C(=C/C[C@@H](OC(=O)c1ccncc1)c1ccccc1OCCO)c1cc(C(=O)OC)ccc1OC)C(C)C	composite z-score	1.36
C=CCN1C(=O)[C@@]2(O[C@@H](CCO)[C@H]([Si](C)(C)c3ccc(OC)cc3)[C@H]2C)c2cc(N3C(=O)c4ccccc4Oc4ccccc43)ccc21	composite z-score	-0.719
CCCC=C(CCC)[C@@H](NP(=O)(c1ccccc1)c1ccccc1)c1ccc(C(F)(F)F)cc1	composite z-score	1.13
COc1ccc([Si](C)(C)[C@@H]2[C@@H](CCn3cc([C@H](O)c4ccccc4)nn3)O[C@]3(C(=O)N(Cc4ccc(N5CCOC5=O)cc4)c4ccccc43)[C@H]2C)cc1	composite z-score	1.11
CC(C)CCC[C@@H](C)[C@H]1CC[C@@]2(C)C3=C(CC[C@]12C)[C@@]1(C)CC[C@H](OC(=O)c2ccc(Br)cc2)C(C)(C)C1CC3 (stereo partly drawn)	composite z-score	-0.298
C=CC1c2cc(O)c(OC)cc2CCN1Cc1sc2ccccc2c1Cl (stereo not drawn)	composite z-score	1.38
O=C(CCCCCCC(=O)Nc1ccccc1)N/N=C/c1ccccc1	composite z-score	-0.162
COC(=O)C1(Cc2ccccc2)C=C2C(=C(C(C)C)C(=O)C2C)CN1 (stereo not drawn)	composite z-score	-0.549
COC(=O)[C@@]1(Cc2ccc(OC)cc2)[C@H]2c3cc(C(=O)N(C)C)n(CCc4c[nH]c5ccc(O)cc45)c3C[C@H]2CN1C(=O)c1ccccc1	composite z-score	1.06
[N-]=[N+]=NCc1ccccc1[C@H]1OC(c2ccc(OCCCO)cc2)=N[C@@]1(CCS(=O)(=O)c1ccccc1)C(N)=O	composite z-score	1.11
CCCC[C@@H]1C[C@H]1[C@@H](NC(=O)c1ccccc1)c1ccc(Cl)cc1	composite z-score	-1.15
CO[C@H]1O[C@H](CO)[C@@H](OC(=O)Nc2ccccc2-c2ccccc2)[C@H](OC(=O)Nc2ccc3c(c2)OCO3)[C@@H]1OC(=O)Nc1ccc2c(c1)OCO2	composite z-score	1.49
CCOC(=O)C[C@H]1[C@H](OC(=O)c2ccccc2-c2ccccc2)[C@@H](NC(=O)c2ccc3ccccc3n2)c2cc(OCCCO)ccc2N1C(=O)c1ccc2ccccc2n1	composite z-score	0.437
COCCOC(=O)N1C(=O)[C@@]2(c3cc(C#CC4(O)CCCCCC4)ccc31)[C@H](C(N)=O)[C@H]1C(=O)O[C@H](c3ccccc3)[C@H](c3ccccc3)N1[C@@H]2c1ccccc1OCCO	composite z-score	1.38
O=C1C[C@@](C(=O)NCC(F)(F)F)(c2ccc([N+](=O)[O-])cc2)[C@@H](c2ccc(CO)cc2)N1C1CCCCC1	composite z-score	1.04
O=C1O[C@@H](c2ccccc2)[C@@H](c2ccccc2)N2[C@@H](c3ccc(O)cc3)[C@]3(C(=O)Nc4ccc(C#CC5=CCCCC5)cc43)[C@@H](C(=O)N3CCN(c4ncccn4)CC3)[C@H]12	composite z-score	1.17
CC(CO)N1C(=O)[C@@H]2C3C(=O)OCCC/C=C\[C@H]3OC23C=CCN(Cn2nnc4ccccc42)C(=O)[C@@H]13 (stereo partly drawn)	composite z-score	-1.01
COc1cc(OC)c(C(O)C2C=CC3C(=O)N(c4ccccc4)C(=O)C3N2Nc2ccc(C#N)cc2)cc1Br (stereo not drawn)	composite z-score	1.36
CN(C)CCCN1C(=O)[C@@]2(c3ccc([N+](=O)[O-])cc3)CC(=O)N(CC34CC5CC(CC(C5)C3)C4)[C@@H]2c2ccc(CO)cc21	composite z-score	0.869
CC(C)(C)OC(=O)CC[C@]1(C(=O)NCCN2CCOCC2)N=C(c2ccc(OCCCO)cc2)O[C@H]1c1ccccc1N=[N+]=[N-]	composite z-score	0.775
COC(=O)C(CC#Cc1ccc2c(c1)[C@]1(C(=O)N2)[C@H](C(=O)O)[C@H]2C(=O)O[C@H](c3ccccc3)[C@H](c3ccccc3)N2[C@@H]1c1ccccc1OCCO)C(=O)OC	composite z-score	0.851

* * *

Test system: Sam68 (KHDRBS1)
Measurement description: Sam68 small-molecule binders, primary screen, biochemical, small-molecule microarray, 635 nm fluorescence (AID 1125);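 also: score merges 667 nm channel intensity with signal to noise over triplicate slides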
Condition set: small-molecule microarray binding, higher = more signal
Measurement name: composite z-score

Smiles string	System name	Measurement name	Experimental result
CN(C)C(=O)[C@@]1(Cc2ccccc2N=[N+]=[N-])COC(c2ccc(OCCCO)cc2)=N1	Sam68 (KHDRBS1)	composite z-score	0.905
[N-]=[N+]=Nc1ccccc1[C@@H]1OC(c2ccc(OCCCO)cc2)=N[C@]1(CCS(=O)(=O)c1ccccc1)C(=O)NCCN1CCOCC1	Sam68 (KHDRBS1)	composite z-score	1.29
COCCOC(=O)N1C(=O)[C@@]2(c3ccccc31)[C@H](c1ccc(OCCO)cc1)N1[C@H](c3ccccc3)[C@H](c3ccccc3)OC(=O)[C@H]1[C@@H]2C(=O)Nc1nc2ccccc2s1	Sam68 (KHDRBS1)	composite z-score	1.3
C=C[C@H](COC(C)=O)NS(=O)(=O)c1ccc(Br)cc1	Sam68 (KHDRBS1)	composite z-score	-0.603

* * *

Measurement description: basal RPMI8226 mitochondrial membrane potential changes, profiling panel, cell-based, JC-1 fluorescence, 24 h, 100 nL compound (AID 1169); also: test concentration not given here
Condition set: RPMI8226 myeloma, JC-1 mitochondrial potential fluorescence, higher = more signal
Measurement name: z-score

Compound	Experimental result
C[C@]12C(=O)N(CCCCCCO)[C@@H]3C(=O)N(c4ccc(Cl)cc4)CC=CC31O[C@@H]1/C=C\CCCOC(=O)C12 (some centres undefined)	0.655
CC(C)(C)OC(=O)CC[C@@]1(C(=O)O)N=C(c2ccc(OCCCO)cc2)O[C@@H]1c1ccccc1	0.855
COc1ccc([Si](C)(C)[C@@H]2[C@@H](CCn3cc([C@H](O)c4ccccc4)nn3)O[C@]3(C(=O)N(Cc4ccc(N5CCOC5=O)cc4)c4ccccc43)[C@H]2C)cc1	0.417
COC(=O)C1(Cc2ccccc2)C=C2C(=C(c3ccccc3)C(=O)C2C)CN1 (centres undefined)	0.213
COCCOC(=O)N1C(=O)[C@@]2(c3cc(C#CC4(O)CCCCCC4)ccc31)[C@H](C(N)=O)[C@H]1C(=O)O[C@H](c3ccccc3)[C@H](c3ccccc3)N1[C@@H]2c1ccc(O)cc1	-0.522
CCCCN1CC=CC23O[C@@H]4/C=C\CCC(C)OC(=O)C4[C@H]2C(=O)N(CCCCCCO)[C@@H]3C1=O (some centres undefined)	0.336
C=CC[C@@]1(C(=O)O)N=C(c2ccc(OCCCO)cc2)O[C@@H]1c1ccccc1	-0.462
COc1cc2c(cc1O)C(C)N(Cc1cc3c(cc1Br)OCO3)CC2 (centres undefined)	-0.481
CCOC(=O)C[C@H]1[C@H](OC(=O)c2ccc(-c3ccccc3)cc2)[C@@H](NC(=O)c2ccc3ccccc3n2)c2cc(OCCCO)ccc2N1C(=O)c1ccccc1	0.224
CC(C)CN1C(=O)[C@@]2(Cc3ccccc31)c1ccccc1C(=O)N(Cc1ccccc1C(F)(F)F)[C@H]2c1ccc(CO)cc1	0.01
COCCOC(=O)N1C(=O)[C@@]2(c3cc(C#Cc4ccc(OC)cc4)ccc31)[C@H](C(=O)NC[C@H](O)c1ccccc1)[C@H]1C(=O)O[C@H](c3ccccc3)[C@H](c3ccccc3)N1[C@@H]2c1ccc(O)cc1	-0.723
COc1cc(CO)cc(I)c1O[C@H]1C=C(C(=O)NCCO)C[C@@H](N(CC2CCCCC2)C(=O)c2ccc(C(F)(F)F)cc2)[C@@H]1O	-1.09
COC(=O)[C@@]1(Cc2ccc(OC)cc2)[C@H]2c3cc(C(=O)N(C)C)n(Cc4ccccc4)c3C[C@H]2CN1C(=O)c1ccccc1	-0.398
COc1ccc(C(O)C2C=CC3C(=O)N(C)C(=O)C3N2N2CCCCC2)cc1 (centres undefined)	-0.176
